Tested on: HTT
PROCEDURE SUMMARY: HiBiT protein abundance assay, HTT (K562 HiBiT knock-in)
Type: cell-based, human
CONDITION DETAILS: HiBiT knock-in K562 cells, 24 hours, top dose 10 μM
Protocol: Compounds described herein were used to screen for effects on quantitative protein abundance using a HiBit assay system (Promega). Quantitative protein abundance was determined by measuring the protein levels of HiBit-tagged protein targets expressed in cell culture via luminescence using the Nano-Glo HiBiT Lytic Detection System, which uses a split complementation assay format to reconstitute NanoBiT enzyme to generate a luminescent signal. […]
pIC50: −log10 of the molar value.
ENDPOINT: pIC50

Example compounds with recorded pIC50:
Lab note: Cc1cn2cc(-c3ncc4cc(N5C[C@H](C)N[C@@H](C)C5)ccc4n3)cc(F)c2n1 gave pIC50 of 6.00 to 7.00

Lab note: Cn1cc2cc(-c3ccc4cc(C5CCNCC5)ccc4n3)c(O)c(F)c2n1 gave pIC50 of > 7.00

Lab note: Cc1nc2cc(O)c(-c3ccc4nc(N5CCC(N)C5)ccc4n3)cc2o1 (centres unmarked) gave pIC50 of > 7.00

Lab note: CNC(=O)c1nc(-c2cc3cn(C)nc3c(F)c2O)nc2ccc(N3CCNCC3)cc12 gave pIC50 of 6.00 to 7.00

Lab note: Cc1c(O)c(-c2ncc3cc(N4CCNCC4)ccc3n2)cc2cn(C)nc12 gave pIC50 of 6.00 to 7.00

More entries:
Lab note: Cc1nc2cc(O)c(-c3ccc4nc(N5CCNC6(CC6)C5)ccc4n3)cc2o1 gave pIC50 of 5.00 to 6.00

Lab note: COc1cc2c(=O)n(C)cnc2cc1-c1ccc2nc(N3CCC(NC(C)(C)C)C3)ccc2n1 (centres unmarked) gave pIC50 of < 5.00

Lab note: Cc1nc2c(C)c(O)c(-c3ccc4nc(N5CC[C@H](N[C@H]6C[C@H](F)C6)C5)ccc4n3)cc2o1 (single isomer, unassigned) gave pIC50 of > 7.00

---

System: HTT
PROCEDURE SUMMARY: HiBiT protein abundance assay, HTT (K562 HiBiT knock-in)
Assay type: cell-based, human
CONDITION DETAILS: HiBiT knock-in K562 cells, 24 hours, top dose 10 μM
pIC50: −log10 of the molar value.
ENDPOINT: pIC50

Example molecules with recorded pIC50:
Lab note: COc1c(-c2ccc3nc(N4CCC(NC(C)(C)C)C4)ccc3n2)cc2c[nH]nc2c1C (stereo not shown) gave pIC50 of < 5.00

Lab note: CN[C@@H]1CCN(c2ccc3nc(-c4cc5cn(C)nc5cc4O)ccc3n2)C1 gave pIC50 of > 7.00

Lab note: Cn1cc2cc(-c3ccc4nc(OC5CNC5)ccc4n3)c(O)cc2n1 gave pIC50 of 6.00 to 7.00

Lab note: Cc1cn2nc(-c3ccc4nc(N5CCC(NC6CC6)C5)ccc4n3)c(O)c2c(C)n1 (stereo not shown) gave pIC50 of 6.00 to 7.00

Lab note: C[C@H]1CN(c2cc(F)c3nc(-c4cc5cn(C)nc5cc4O)ccc3c2)C[C@H](C)N1 (single isomer, unassigned) gave pIC50 of > 7.00

Lab note: Cc1nc2cc(O)c(-c3ccc4nc(N5CCC(NCC6CC6)C5)ccc4n3)cc2o1 (single isomer, unassigned) [Compound 292] gave pIC50 of > 7.00

As a next step, examine the molecule that follows.
Lab note: Cc1c(O)c(-c2ccc3cc(N4CCNCC4)cc(F)c3n2)cc2cn(C)nc12 gave pIC50 of > 7.00

---

Test system: HTT
PROCEDURE SUMMARY: HiBiT protein abundance assay, HTT (K562 HiBiT knock-in)
Format: cell-based, human
CONDITION DETAILS: HiBiT knock-in K562 cells, 24 hours, top dose 10 μM
pIC50: −log10 of the molar value.
Entries and their pIC50 values follow.

Example compounds with recorded pIC50:
Lab note: Cc1c(O)c(-c2ccc3nc(N4CC[C@H](NCC5CC5)C4)ccc3n2)cc2cn(C)nc12 (single isomer, unassigned) gave pIC50 of > 7.00

Lab note: Cc1c(O)c(-c2ccc3nc(N4CC[C@H](NC(C)C)C4)ccc3n2)cc2cn(C)nc12 gave pIC50 of > 7.00

Lab note: Cc1nc2c(C)c(O)c(-c3ccc4nc(N5CC[C@H](NC(C)C)C5)ccc4n3)cc2o1 (single isomer, unassigned) gave pIC50 of > 7.00

Lab note: Cc1nc2c(C)c(O)c(-c3ccc4nc(N5CC[C@H](NC(C)(C)C)C5)ccc4n3)cc2o1 gave pIC50 of > 7.00

Lab note: Cn1cc2cc(-c3ccc4cc(N5CCC(NC(C)(C)C)C5)ncc4n3)c(O)cc2n1 (stereo not shown) gave pIC50 of 6.00 to 7.00

More entries:
Lab note: Cc1c(O)c(-c2ccc3nc(N4CC[C@@H](NC5CC5)C4)ccc3n2)cc2cn(C)nc12 gave pIC50 of > 7.00

Lab note: CN[C@@H]1CCN(c2ccc3nc(-c4cc(C#N)c5nc(C)cn5c4)ncc3n2)C1 gave pIC50 of 6.00 to 7.00

---

System: K562 cells
PROCEDURE SUMMARY: Cell Titer Glo 2.0 cell viability (toxicity) assay, K562
CONDITION DETAILS: 500 cells/well, 72 hours
ENDPOINT: Effect of Exemplary Compounds on Cell Viability, K562

Lab note: Cc1cn2cc(-c3nc(C(=O)NC4CCC4)c4cc(N5C[C@@H](C)N[C@@H](C)C5)ccc4n3)cc(F)c2n1 [Compound 779] gave Effect of Exemplary Compounds on Cell Viability, K562 of A (A represents <100 nM)

Lab note: Cc1cc(N2C[C@@H](C)N[C@@H](C)C2)cc2c(Cl)cc(-c3cc4cn(C)nc4c(F)c3O)nc12 [Compound 723] gave Effect of Exemplary Compounds on Cell Viability, K562 of A (A represents <100 nM)

Lab note: Cc1cn2cc(-c3ccc4cc(N5CCNCC5)cc(F)c4n3)cc(F)c2n1 [Compound 517] gave Effect of Exemplary Compounds on Cell Viability, K562 of A (A represents <100 nM)

Lab note: Cc1c(O)c(-c2ccc3nc(C4CCNCC4)ccc3n2)cc2cn(C)nc12 [Compound 101] gave Effect of Exemplary Compounds on Cell Viability, K562 of A (A represents <100 nM)

---

Test system: HTT
PROCEDURE SUMMARY: HiBiT protein abundance assay, HTT (K562 HiBiT knock-in)
Type: cell-based, human
CONDITION DETAILS: HiBiT knock-in K562 cells, 24 hours, top dose 10 μM
Entries and their IC50 values follow.

Example compounds with recorded IC50:
Lab note: Cc1nc2c(C)c(O)c(-c3ccc4nc(N5CC[C@H](NC(C)C)C5)ncc4n3)cc2o1 [Compound 416] gave IC50 of < 0.1 µM

Lab note: C[C@@H]1CN(c2ccc3nc(-c4cc5cn(C)nc5cc4O)ncc3c2)C[C@@H](C)N1 [Compound 753] gave IC50 of 0.1 to 1 µM

Lab note: Cc1nc2c(F)c(O)c(-c3ccc4nc(N5CC[C@H](NC6(CF)CC6)C5)ccc4n3)cc2o1 (single isomer, unassigned) [Compound 373] gave IC50 of < 0.1 µM

Lab note: Cn1cc2cc(-c3ccc4nc(C5CCNCC5)ccc4n3)cc(F)c2n1 [Compound 185] gave IC50 of 1 to 10 µM

Lab note: COc1cc2nc(C3COC3)oc2cc1-c1ccc2nc(N3CCC(NC(C)(C)C)C3)ccc2n1 (stereo not shown) [Compound 335] gave IC50 of 1 to 10 µM

More entries:
Lab note: Cn1cc2cc(-c3ccc4nc(N5CC[C@@H](NCC(F)(F)F)C5)ccc4n3)c(O)cc2n1 [Compound 245] gave IC50 of 1 to 10 µM

Lab note: CNC(=O)c1nc(-c2cc3cn(C)nc3cc2O)nc2ccc(N3C[C@@H](C)N[C@@H](C)C3)cc12 [Compound 531] gave IC50 of 0.1 to 1 µM

---

Tested on: K562 cells
PROCEDURE SUMMARY: Cell Titer Glo 2.0 cell viability (toxicity) assay, K562
CONDITION DETAILS: 500 cells/well, 72 hours
ENDPOINT: Effect of Exemplary Compounds on Cell Viability, K562

Lab note: Cc1nc2cc(-c3ccc4nc(N5CCC(NC(C)(C)C)C5)ccc4n3)c(O)cc2n1C (centres unmarked) gave Effect of Exemplary Compounds on Cell Viability, K562 of A (A represents <100 nM)

Lab note: Cc1nc2cc(O)c(-c3ccc4nc(N5CCC(NC(C)C)C5)ccc4n3)cc2o1 (centres unmarked) gave Effect of Exemplary Compounds on Cell Viability, K562 of A (A represents <100 nM)
